Assignment: determine reported Inh (PKA) for the given compounds.
- System: PRKACA-PRKAR2A interaction (SmBiT-PRKACA / LgBiT-PRKAR2A), protein kinase A
- Design: NanoLuc complementation counter-screen in cell extract, PRKACA with PRKAR2A, loss of luminescence, detects NanoLuc interference
- test context: counter-screen for NanoLuc interference; 0.5 h, 20 µM; inhibitor
Counter-ions that a name gives are not always drawn.
Answer with a number only, understood to be in %.

Could you tell me which Inh (PKA) is on file for COc1cc2ncnc(Nc3ccc(O)c(Br)c3)c2cc1OC ?
9.14

Try this compound too: CCOC(=O)N1c2ccc(C(F)(F)F)cc2[C@@H](N(Cc2cc(C(F)(F)F)cc(C(F)(F)F)c2)C(=O)OC)C[C@H]1CC
4.254

Next record, please: Cc1ccc(NC(=O)c2ccc(CN3CCN(C)CC3)cc2)cc1Nc1nc(-c2cccnc2)cs1
15.54

Thanks! And CN1CCN(c2ccc(OC(F)(F)F)c(Nc3ncc4c(n3)-c3c(c(C(N)=O)nn3CCO)CC4)c2)CC1 ?
23.22

// same read-out, input: Cc1cc(Nc2nc(N[C@@H](C)c3ncc(F)cn3)ncc2Cl)[nH]n1
15.63

Ok, now C[C@]12CC[C@H]3[C@@H](CC[C@@]45O[C@@H]4C(O)=C(C#N)C[C@]35C)[C@@H]1CC[C@@H]2O
1.891

Then this compound: Nc1nc(N)nc(-c2cc(Cl)ccc2Cl)n1
5.104

Now give it for COC(=O)[C@H](Cc1cccc(C(=N)N)c1)[C@@H](C)NC(=O)c1ccc(-c2cc[n+]([O-])cc2)cc1 too.
3.513

Could you do the same for CCCCNc1cc(C(=O)O)cc(S(N)(=O)=O)c1Oc1ccccc1 [UM0118581:03, Bumetanide] , please?
2.877

Try this compound too: Cc1cccc(Cc2c[nH]cn2)c1C [UM0142216:01, Detomidine HCl]
4.249

Moving on to C[C@@H](c1ncncc1F)[C@](O)(Cn1cncn1)c1ccc(F)cc1F
0.951

# iterate: CSc1nc2cc(Cl)c(Oc3cccc(Cl)c3Cl)cc2[nH]1
37.19

Record: C[C@H]1[C@@H](O)O[C@@H]2O[C@@]3(C)CC[C@H]4[C@H](C)CC[C@@H]1[C@@]24OO3 [UM0142853:01, Dihydroartemisinin]
0.1421

What do we get for COc1cc(N2CCC(N3CCN(C)CC3)CC2)ccc1Nc1ncc(Cl)c(Nc2ccccc2S(=O)(=O)C(C)C)n1 ?
23

# repeat for COC(=O)N[C@H](C(=O)N1CC2(CC2)C[C@H]1c1nc(-c2ccc3c(c2)C(F)(F)c2cc(-c4ccc5[nH]c([C@@H]6[C@H]7CC[C@H](C7)N6C(=O)[C@@H](NC(=O)OC)C(C)C)nc5c4)ccc2-3)c[nH]1)C(C)C
1.236

CC(C)CC(=O)Nc1n[nH]c2c1CN(C(=O)C1CCN(C)CC1)C2(C)C , same question.
3.326

# repeat for S=C(S)O[C@@H]1C[C@@H]2C[C@@H]1[C@H]1CCC[C@@H]21
17.68

Moving on to O=C1CN(/N=C/c2ccc(-c3ccc([N+](=O)[O-])cc3)o2)C(=O)N1 [UM0134180:02, Dantrolene, sodium salt]
25.72

CCn1c2ccccc2c2cc(Nc3ccnc(NCCCN4CCOCC4)n3)ccc21 , same question.
37.03

Next compound up: COc1ccc([C@H]2CNC(=O)C2)cc1OC1CCCC1 [UM0141786:02, S- (+)-Rolipram]
3.135

Try this compound too: O=S(=O)(c1cccc2c(O)nccc12)N1CCCNCC1 [UM0141561:01, Hydroxyfasudil hydrochloride]
27.19

Here is the next compound: NC(=O)N1c2ccccc2C=Cc2ccccc21 [UM0133618:02, Carbamazepine]
3.187

Field entry: CCN1CC(CCN2CCOCC2)C(c2ccccc2)(c2ccccc2)C1=O (stereo not shown) [UM0142035:01, Doxapram HCl]
1.453

Now the same for Cc1[nH]c(/C=C2\C(=O)Nc3ccc(S(=O)(=O)Cc4c(Cl)cccc4Cl)cc32)c(C)c1C(=O)N1CCC[C@@H]1CN1CCCC1
72.78

// query: CC(C)(C)NCC(O)c1ccc(O)c(CO)c1 (stereo not shown) [UM0142213:01, Salbutamol Sulfate]
-0.5821

Then what about the compound CC[C@@H]1C(=O)N(C)c2cnc(Nc3ccc(C(=O)N[C@H]4CC[C@H](N5CCN(CC6CC6)CC5)CC4)cc3OC)nc2N1C(C)C ?
8.077

Entry to check: O=C1N=C(NCc2cccs2)S/C1=C\c1ccc2ncccc2c1
23.14

Then NC(=O)c1ccc(-c2nc(-c3ccc4c(c3)OCCO4)c(-c3ccccn3)[nH]2)cc1 ?
37.52
